- Assay System: C3b (Homo sapiens)
- Construct: the α’NT, MG6^α−8, anchor, and C-terminal complement (CTC) domains of the α-chain that are all shared between C3c and C3b; purchased Complement Technology (Tyler, TX, USA)
- Procedure Details: SPR kinetic binding studies on immobilized C3b
- Experimental Conditions: source data of Table 1, single SPR dataset 2; read-out: KD, Dataset 2
pKd: −log10 of the molar value. Bridge positions count the residues as written; N and C are the ends. Square brackets hold non-standard residues; d marks the D form. Peptide text beside a SMILES is read from it. Trp(1-Me) = Cn1cc(C[C@H](N)C(=O)O)c2ccccc21; NMeI = CC[C@H](C)[C@H](NC)C(=O)O; Sar = CNCC(=O)O
Cut-off 8 on pKd, inclusive. At or above means TRUE; below means FALSE.

The examples below pair each entry with its known result.
{"columns": ["Molecule", "Class Label"],
 "data": [
  ["CC[C@H](C)[C@H](NC(=O)[C@@H](C)N)C(=O)N[C@H]1CSSC[C@@H](C(=O)N(C)[C@H](C(N)=O)[C@@H](C)CC)NC(=O)[C@H](CCCNC(=N)N)NC(=O)[C@H](Cc2c[nH]cn2)NC(=O)[C@H](C)NC(=O)CN(C)C(=O)[C@H](Cc2c[nH]c3ccccc23)NC(=O)[C@H](CC(=O)O)NC(=O)[C@H](CCC(N)=O)NC(=O)[C@H](Cc2cn(C)c3ccccc23)NC(=O)[C@H](C(C)C)NC1=O [Cp40 y1a]", "TRUE"],
  ["CC[C@H](C)[C@H](NC(=O)[C@H](N)Cc1ccc(O)cc1)C(=O)N[C@H]1CSSC[C@@H](C(=O)N(C)[C@H](C(N)=O)[C@@H](C)CC)NC(=O)[C@H](CO)NC(=O)[C@H](Cc2c[nH]cn2)NC(=O)[C@H](C)NC(=O)CN(C)C(=O)[C@H](Cc2c[nH]c3ccccc23)NC(=O)[C@H](CO)NC(=O)[C@H](CCC(N)=O)NC(=O)[C@H](Cc2cn(C)c3ccccc23)NC(=O)[C@H](C(C)C)NC1=O [Cp40 D7S/R12S] (H-[dY]ICV[Trp(1-Me)]QSW[Sar]AHSC[NMeI]-NH2; disulfide 3-13)", "FALSE"],
  ["CC[C@H](C)[C@H](NC(=O)[C@H](C)N)C(=O)N[C@H]1CSSC[C@@H](C(=O)N(C)[C@H](C(N)=O)[C@@H](C)CC)NC(=O)[C@H](CCCNC(=N)N)NC(=O)[C@H](Cc2c[nH]cn2)NC(=O)[C@H](C)NC(=O)CN(C)C(=O)[C@H](Cc2c[nH]c3ccccc23)NC(=O)[C@H](CC(=O)O)NC(=O)[C@H](CCC(N)=O)NC(=O)[C@H](Cc2cn(C)c3ccccc23)NC(=O)[C@H](C(C)C)NC1=O [Cp40 y1A] (H-AICV[Trp(1-Me)]QDW[Sar]AHRC[NMeI]-NH2; disulfide 3-13)", "TRUE"],
  ["CC[C@H](C)[C@H](NC(=O)[C@H](N)Cc1ccc(O)cc1)C(=O)N[C@H]1CSSC[C@@H](C(=O)N(C)[C@H](C(N)=O)[C@@H](C)CC)NC(=O)[C@H](CCCNC(=N)N)NC(=O)[C@H](Cc2c[nH]cn2)NC(=O)[C@H](C)NC(=O)CNC(=O)[C@H](Cc2c[nH]c3ccccc23)NC(=O)[C@H](CC(=O)O)NC(=O)[C@H](CCC(N)=O)NC(=O)[C@H](Cc2cn(C)c3ccccc23)NC(=O)[C@H](C(C)C)NC1=O [Cp40 Sar9G]", "TRUE"]
]}

From here, focus on the item given below.
Does pKd meet or surpass 8 for CC[C@H](C)[C@H](NC(C)=O)C(=O)N[C@H]1CSSC[C@@H](C(=O)N(C)[C@H](C(N)=O)[C@@H](C)CC)NC(=O)[C@H](CCCNC(=N)N)NC(=O)[C@H](Cc2c[nH]cn2)NC(=O)[C@H](C)NC(=O)CN(C)C(=O)[C@H](Cc2c[nH]c3ccccc23)NC(=O)[C@H](CC(=O)O)NC(=O)[C@H](CCC(N)=O)NC(=O)[C@H](Cc2cn(C)c3ccccc23)NC(=O)[C@H](C(C)C)NC1=O [Cp20, reference compound] ?
TRUE

###

Here the recorded kon is given for each entry.
- Assay System: C3b (Homo sapiens)
- Construct: the α’NT, MG6^α−8, anchor, and C-terminal complement (CTC) domains of the α-chain that are all shared between C3c and C3b; purchased Complement Technology (Tyler, TX, USA)
- Procedure Details: SPR kinetic binding studies on immobilized C3b
- Experimental Conditions: pH 7.4, read-out: ka, Dataset 3
Bridge positions count the residues as written; N and C are the ends. Square brackets hold non-standard residues; d marks the D form. Peptide text beside a SMILES is read from it. Trp(1-Me) = Cn1cc(C[C@H](N)C(=O)O)c2ccccc21; NMeI = CC[C@H](C)[C@H](NC)C(=O)O; Sar = CNCC(=O)O

Recorded results for 2 compounds are shown here.
{"columns": ["Compound", "kon"],
 "data": [
  ["CC[C@H](C)[C@H](NC(=O)[C@@H](C)N)C(=O)N[C@H]1CSSC[C@@H](C(=O)N(C)[C@H](C(N)=O)[C@@H](C)CC)NC(=O)[C@H](CCCNC(=N)N)NC(=O)[C@H](Cc2c[nH]cn2)NC(=O)[C@H](C)NC(=O)CN(C)C(=O)[C@H](Cc2c[nH]c3ccccc23)NC(=O)[C@H](CC(=O)O)NC(=O)[C@H](CCC(N)=O)NC(=O)[C@H](Cc2cn(C)c3ccccc23)NC(=O)[C@H](C(C)C)NC1=O [Cp40 y1a]", "650000 M⁻¹ s⁻¹"],
  ["CC[C@H](C)[C@H](NC(=O)[C@H](N)Cc1ccc(O)cc1)C(=O)N[C@H]1CSSC[C@@H](C(=O)N(C)[C@H](C(N)=O)[C@@H](C)CC)NC(=O)[C@H](CCCNC(=N)N)NC(=O)[C@H](Cc2c[nH]cn2)NC(=O)[C@H](C)NC(=O)CNC(=O)[C@H](Cc2c[nH]c3ccccc23)NC(=O)[C@H](CC(=O)O)NC(=O)[C@H](CCC(N)=O)NC(=O)[C@H](Cc2cn(C)c3ccccc23)NC(=O)[C@H](C(C)C)NC1=O [Cp40 Sar9G]", "360000 M⁻¹ s⁻¹"]
]}

Please find the next compound below.
Query CC[C@H](C)[C@H](NC(=O)[C@H](N)Cc1ccc(O)cc1)C(=O)N[C@H]1CSSC[C@@H](C(=O)N(C)[C@H](C(N)=O)[C@@H](C)CC)NC(=O)[C@H](CCCNC(=N)N)NC(=O)[C@H](Cc2c[nH]cn2)NC(=O)[C@H](C)NC(=O)CN(C)C(=O)[C@H](Cc2c[nH]c3ccccc23)NC(=O)[C@H](CCC(=O)O)NC(=O)[C@H](CCC(N)=O)NC(=O)[C@H](Cc2cn(C)c3ccccc23)NC(=O)[C@H](C(C)C)NC1=O [Cp40 D7E] (H-[dY]ICV[Trp(1-Me)]QEW[Sar]AHRC[NMeI]-NH2; disulfide 3-13) on C3b (Homo sapiens); kon returned: 730000 M⁻¹ s⁻¹

###

Here the recorded pKd is given for each entry.
- Assay System: C3b (Homo sapiens, UniProt P01024)
- Construct: the α’NT, MG6^α−8, anchor, and C-terminal complement (CTC) domains of the α-chain that are all shared between C3c and C3b; purchased Complement Technology (Tyler, TX, USA)
- Sequence (P01024 23-667 limits assumed): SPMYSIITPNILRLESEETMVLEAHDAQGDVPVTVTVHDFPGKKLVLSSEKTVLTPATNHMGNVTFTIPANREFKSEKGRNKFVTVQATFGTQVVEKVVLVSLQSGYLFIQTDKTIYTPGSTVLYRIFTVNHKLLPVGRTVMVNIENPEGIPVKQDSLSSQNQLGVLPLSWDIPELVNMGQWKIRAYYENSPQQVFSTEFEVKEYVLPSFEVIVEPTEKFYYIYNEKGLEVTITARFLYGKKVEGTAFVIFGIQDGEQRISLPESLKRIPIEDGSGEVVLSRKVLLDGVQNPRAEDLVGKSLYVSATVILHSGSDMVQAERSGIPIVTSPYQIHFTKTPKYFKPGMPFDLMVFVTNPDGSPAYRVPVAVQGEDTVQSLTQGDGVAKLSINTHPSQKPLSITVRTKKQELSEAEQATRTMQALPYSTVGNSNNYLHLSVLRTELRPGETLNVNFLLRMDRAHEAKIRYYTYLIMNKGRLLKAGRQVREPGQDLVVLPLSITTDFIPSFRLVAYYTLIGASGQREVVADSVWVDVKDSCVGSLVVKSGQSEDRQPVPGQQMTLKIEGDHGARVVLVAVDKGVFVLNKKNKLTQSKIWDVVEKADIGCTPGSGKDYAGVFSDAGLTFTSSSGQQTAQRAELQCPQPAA
- Sequence (P01024 749-1663 limits assumed): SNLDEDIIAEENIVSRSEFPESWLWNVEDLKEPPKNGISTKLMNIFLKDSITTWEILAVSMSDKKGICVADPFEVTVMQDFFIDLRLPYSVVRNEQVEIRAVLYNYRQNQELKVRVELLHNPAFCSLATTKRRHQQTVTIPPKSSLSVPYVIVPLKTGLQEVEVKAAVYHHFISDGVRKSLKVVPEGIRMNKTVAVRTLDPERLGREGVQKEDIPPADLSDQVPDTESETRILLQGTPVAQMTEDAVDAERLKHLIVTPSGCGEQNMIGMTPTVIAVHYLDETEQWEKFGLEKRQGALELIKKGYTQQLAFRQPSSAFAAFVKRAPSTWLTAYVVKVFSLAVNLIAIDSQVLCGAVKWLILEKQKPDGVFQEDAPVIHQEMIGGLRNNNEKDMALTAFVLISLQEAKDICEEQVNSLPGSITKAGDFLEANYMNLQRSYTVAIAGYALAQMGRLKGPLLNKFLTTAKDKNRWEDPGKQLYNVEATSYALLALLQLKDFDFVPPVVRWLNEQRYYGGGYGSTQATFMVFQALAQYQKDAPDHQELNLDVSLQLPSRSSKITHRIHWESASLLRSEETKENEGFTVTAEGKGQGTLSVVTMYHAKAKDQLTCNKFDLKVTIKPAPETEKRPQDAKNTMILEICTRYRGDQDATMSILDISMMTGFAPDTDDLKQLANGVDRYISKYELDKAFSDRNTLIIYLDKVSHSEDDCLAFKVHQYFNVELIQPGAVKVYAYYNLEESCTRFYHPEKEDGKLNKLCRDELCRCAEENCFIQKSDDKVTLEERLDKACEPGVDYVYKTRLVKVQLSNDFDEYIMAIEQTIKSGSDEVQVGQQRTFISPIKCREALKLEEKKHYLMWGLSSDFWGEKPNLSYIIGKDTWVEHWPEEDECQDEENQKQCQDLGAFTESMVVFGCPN
- Procedure Details: SPR kinetic binding studies on immobilized C3b
- Experimental Conditions: source data of Table 1, single SPR dataset 1; read-out: KD, Dataset 1
Bridge positions count the residues as written; N and C are the ends. Square brackets hold non-standard residues; d marks the D form. Peptide text beside a SMILES is read from it. Trp(1-Me) = Cn1cc(C[C@H](N)C(=O)O)c2ccccc21; NMeI = CC[C@H](C)[C@H](NC)C(=O)O; Sar = CNCC(=O)O
When answering, recall that pKd equals minus log10 of the concentration in mol/L, and write that number alone.

{"columns": ["Compound", "Reported Endpoint", "Result Number"],
 "data": [
  ["CC[C@H](C)[C@H](NC(=O)[C@H](N)Cc1ccc(O)cc1)C(=O)N[C@H]1CSSC[C@@H](C(=O)N(C)[C@H](C(N)=O)[C@@H](C)CC)NC(=O)[C@H](CCCNC(=N)N)NC(=O)[C@H](Cc2c[nH]cn2)NC(=O)[C@H](C)NC(=O)CN(C)C(=O)[C@H](Cc2c[nH]c3ccccc23)NC(=O)[C@H](CO)NC(=O)[C@H](CCC(N)=O)NC(=O)[C@H](Cc2cn(C)c3ccccc23)NC(=O)[C@H](C(C)C)NC1=O [Cp40 D7S] (H-[dY]ICV[Trp(1-Me)]QSW[Sar]AHRC[NMeI]-NH2; disulfide 3-13)", "pKd", 8.31]
]}

Please find the next compound below.
Query "CC[C@H](C)[C@H](NC(=O)[C@@H](C)N)C(=O)N[C@H]1CSSC[C@@H](C(=O)N(C)[C@H](C(N)=O)[C@@H](C)CC)NC(=O)[C@H](CCCNC(=N)N)NC(=O)[C@H](Cc2c[nH]cn2)NC(=O)[C@H](C)NC(=O)CN(C)C(=O)[C@H](Cc2c[nH]c3ccccc23)NC(=O)[C@H](CC(=O)O)NC(=O)[C@H](CCC(N)=O)NC(=O)[C@H](Cc2cn(C)c3ccccc23)NC(=O)[C@H](C(C)C)NC1=O" on C3b (Homo sapiens, UniProt P01024); pKd returned: 8.66
